Molecular target: DCN1 (DCUND1) protein PONY domain (Homo sapiens (Human))
Sequence (Q96GG9 60-248): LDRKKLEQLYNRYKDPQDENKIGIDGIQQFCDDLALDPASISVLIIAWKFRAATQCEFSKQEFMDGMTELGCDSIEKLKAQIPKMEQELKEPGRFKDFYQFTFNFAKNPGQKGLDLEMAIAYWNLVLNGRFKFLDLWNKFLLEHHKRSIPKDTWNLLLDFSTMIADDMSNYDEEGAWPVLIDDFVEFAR
Experiment: TR-FRET assay (binding to DCN-1, displacement of FAM-labeled probe)
Conditions: 24 hr after treatment with compound; read-out: TR FRET IC50 24 hr
pIC50: −log10 of the molar value.
METRIC_NAME: pIC50

Below: 5 compounds and their reported pIC50.
INSERT INTO assay_data (compound, target_or_test_system, assay_result) VALUES
  ('C=C(CN1CC2CCC1CO2)C(=O)NCc1cccc([C@@H]2c3cnn(-c4ccccc4)c3N(CC)C(=O)[C@H]2NC(=O)c2cccc(C(F)(F)F)c2)c1 (stereo partly drawn)', 'DCN1 (DCUND1) protein PONY domain (Homo sapiens (Human))', '≥ 6.70'),
  ('CCN1C(=O)[C@@H](NC(=O)c2cccc(C(F)(F)F)c2)[C@@H](c2ccc(F)c(NC(=O)/C=C/CN(C)C)c2)c2cnn(-c3ccccc3)c21 (racemic)', 'DCN1 (DCUND1) protein PONY domain (Homo sapiens (Human))', '5.52 to 6.00'),
  ('C/C=C(\CN1CC2(COC2)C1)C(=O)NCc1cccc([C@@H]2c3cnn(-c4ccccc4)c3N(CC)C(=O)[C@H]2NC(=O)c2nccc(C(F)(F)F)n2)c1', 'DCN1 (DCUND1) protein PONY domain (Homo sapiens (Human))', '≥ 6.70'),
  ('CCN1C(=O)[C@H](NC(=O)c2cccc(C(F)(F)F)c2)[C@@H](c2ccccc2NC(=O)CCl)c2c(C)nn(-c3ccccc3)c21', 'DCN1 (DCUND1) protein PONY domain (Homo sapiens (Human))', '5.52 to 6.00'),
  ('CCN1C(=O)[C@H](NC(=O)c2cccc(C(F)(F)F)c2)[C@@H](c2cccc(NC(=O)C#CCN(C)C)c2)c2c(C)nn(-c3ccccc3)c21 (racemic)', 'DCN1 (DCUND1) protein PONY domain (Homo sapiens (Human))', '≥ 6.70');

Moving on to another compound below.
## Input Record request: pIC50 value, item CCN1C(=O)[C@@H](NC(=O)c2cccc(C(F)(F)F)c2)[C@H](c2cccc(CNC#N)c2)c2cnn(-c3ccccc3)c21 (racemic)
## Output 5.52 to 6.00
